Source listed as patent US20260315475A1.

# ASSAY_DETAILS: Phase I single-dose open-label pharmacokinetic study in participants with normal hepatic function and varying degrees of hepatic impairment
# Assay type: in vivo, human
# STATED_CONDITIONS: human, plasma, po, 200 mg; single oral 200 mg belumosudil, fed; moderate hepatic impairment; geometric mean (CV %)
PROPERTY_NAME: Cmax (ng/mL)
Answers are plain numbers, in ng/mL.

Identify measured Cmax corresponding to CC(C)NC(=O)COc1cccc(-c2nc(Nc3ccc4[nH]ncc4c3)c3ccccc3n2)c1
2490

----------
# ASSAY_DETAILS: Phase I single-dose open-label pharmacokinetic study in participants with normal hepatic function and varying degrees of hepatic impairment
# Assay type: in vivo, human
# STATED_CONDITIONS: human, plasma, po, 200 mg; single oral 200 mg belumosudil, fed; moderate hepatic impairment; geometric mean (CV %)
PROPERTY_NAME: AUC(0-inf) (ng·h/mL)
One number for each entry, in ng·h/mL.

Give the reported AUC(0-inf) for this molecule. CC(C)NC(=O)COc1cccc(-c2nc(Nc3ccc4[nH]ncc4c3)c3ccccc3n2)c1
23700

----------
# ASSAY_DETAILS: Phase I single-dose open-label pharmacokinetic study in participants with normal hepatic function and varying degrees of hepatic impairment
# Type: in vivo, human
# STATED_CONDITIONS: human, plasma, po, 200 mg; single oral 200 mg belumosudil, fed; severe hepatic impairment; median
PROPERTY_NAME: Tmax (h)
Give bare numbers, in h.

State its Tmax for this compound: CC(C)NC(=O)COc1cccc(-c2nc(Nc3ccc4[nH]ncc4c3)c3ccccc3n2)c1 [belumosudil]
5.02

----------
# ASSAY_DETAILS: Phase I single-dose open-label pharmacokinetic study in participants with normal hepatic function and varying degrees of hepatic impairment
# Format: in vivo, human
# STATED_CONDITIONS: human, plasma, po, 200 mg; single oral 200 mg belumosudil, fed; mild hepatic impairment; geometric mean (CV %)
PROPERTY_NAME: AUC(0-inf) (ng·h/mL)
Give bare numbers, in ng·h/mL.

// fetch AUC(0-inf) given entry CC(C)NC(=O)COc1cccc(-c2nc(Nc3ccc4[nH]ncc4c3)c3ccccc3n2)c1 [belumosudil]
16000

----------
# ASSAY_DETAILS: Phase I single-dose open-label pharmacokinetic study in participants with normal hepatic function and varying degrees of hepatic impairment
# Type: in vivo, human
# STATED_CONDITIONS: human, plasma, po, 200 mg; single oral 200 mg belumosudil, fed; severe hepatic impairment; geometric mean (CV %)
PROPERTY_NAME: half-life (h)
Numbers only, in h.

Give the reported half-life for this compound. CC(C)NC(=O)COc1cccc(-c2nc(Nc3ccc4[nH]ncc4c3)c3ccccc3n2)c1
10

----------
# ASSAY_DETAILS: Phase I single-dose open-label pharmacokinetic study in participants with normal hepatic function and varying degrees of hepatic impairment
# Assay type: in vivo, human
# STATED_CONDITIONS: human, plasma, po, 200 mg; single oral 200 mg belumosudil, fed; severe hepatic impairment; geometric mean (CV %)
PROPERTY_NAME: AUC(0-inf)

Quickly give me recorded AUC(0-inf) for CC(C)NC(=O)COc1cccc(-c2nc(Nc3ccc4[nH]ncc4c3)c3ccccc3n2)c1
30100 ng·h/mL

----------
# ASSAY_DETAILS: Phase I single-dose open-label pharmacokinetic study in participants with normal hepatic function and varying degrees of hepatic impairment
# Assay type: in vivo, human
# STATED_CONDITIONS: human, plasma, po, 200 mg; single oral 200 mg belumosudil, fed; severe hepatic impairment; geometric mean (CV %)
PROPERTY_NAME: Cmax (ng/mL)
Give bare numbers, in ng/mL.

Report Cmax for CC(C)NC(=O)COc1cccc(-c2nc(Nc3ccc4[nH]ncc4c3)c3ccccc3n2)c1
2170

----------
# ASSAY_DETAILS: Phase I single-dose open-label pharmacokinetic study in participants with normal hepatic function and varying degrees of hepatic impairment
# Format: in vivo, human
# STATED_CONDITIONS: human, plasma, po, 200 mg, plasma; single oral 200 mg belumosudil, fed; normal hepatic function; geometric mean (CV %); read-out: Vz/F
PROPERTY_NAME: Vd/F (L)
One number for each entry, in L.

Give the reported value of Vd/F for this record: CC(C)NC(=O)COc1cccc(-c2nc(Nc3ccc4[nH]ncc4c3)c3ccccc3n2)c1 [belumosudil]
193

----------
# ASSAY_DETAILS: Phase I single-dose open-label pharmacokinetic study in participants with normal hepatic function and varying degrees of hepatic impairment
# Format: in vivo, human
# STATED_CONDITIONS: human, plasma, po, 200 mg; single oral 200 mg belumosudil, fed; mild hepatic impairment; median
PROPERTY_NAME: Tmax (h)
Answers are plain numbers, in h.

Annotate the compound CC(C)NC(=O)COc1cccc(-c2nc(Nc3ccc4[nH]ncc4c3)c3ccccc3n2)c1 with its measured Tmax.
2.98

----------
# ASSAY_DETAILS: Phase I single-dose open-label pharmacokinetic study in participants with normal hepatic function and varying degrees of hepatic impairment
# Format: in vivo, human
# STATED_CONDITIONS: human, plasma, po, 200 mg, plasma; single oral 200 mg belumosudil, fed; severe hepatic impairment; geometric mean (CV %); read-out: Vz/F
PROPERTY_NAME: Vd/F
The reply should consist of the numeric value with the unit placed after it.

Please give measured Vd/F of the following entry: CC(C)NC(=O)COc1cccc(-c2nc(Nc3ccc4[nH]ncc4c3)c3ccccc3n2)c1
95.7 L

----------
# ASSAY_DETAILS: Phase I single-dose open-label pharmacokinetic study in participants with normal hepatic function and varying degrees of hepatic impairment
# Type: in vivo, human
# STATED_CONDITIONS: human, plasma, po, 200 mg; single oral 200 mg belumosudil, fed; severe hepatic impairment; geometric mean (CV %)
# From the text: The primary objective was to assess the pharmacokinetic (PK) of belumosudil following a single oral dose of belumosudil in participants with mild, moderate, or severe hepatic impairment compared to healthy participants with normal hepatic function. […]
PROPERTY_NAME: AUC(0-t) at 24 h (ng·h/mL)
One number for each entry, in ng·h/mL.

Hello, please tell me recorded AUC(0-t) at 24 h for this one: CC(C)NC(=O)COc1cccc(-c2nc(Nc3ccc4[nH]ncc4c3)c3ccccc3n2)c1
23400

----------
# ASSAY_DETAILS: Phase I single-dose open-label pharmacokinetic study in participants with normal hepatic function and varying degrees of hepatic impairment
# Format: in vivo, human
# STATED_CONDITIONS: human, plasma, po, 200 mg; single oral 200 mg belumosudil, fed; moderate hepatic impairment; geometric mean (CV %)
PROPERTY_NAME: CL/F (mL/min)
Answers are plain numbers, in mL/min.

// fetch CL/F given entry CC(C)NC(=O)COc1cccc(-c2nc(Nc3ccc4[nH]ncc4c3)c3ccccc3n2)c1 [belumosudil]
140

----------
# ASSAY_DETAILS: Phase I single-dose open-label pharmacokinetic study in participants with normal hepatic function and varying degrees of hepatic impairment
# Assay type: in vivo, human
# STATED_CONDITIONS: human, plasma, po, 200 mg; single oral 200 mg belumosudil, fed; mild hepatic impairment; geometric mean (CV %)
PROPERTY_NAME: AUC(0-t)
Quick note: unit goes after the number.

Assign AUC(0-t) to the following record: CC(C)NC(=O)COc1cccc(-c2nc(Nc3ccc4[nH]ncc4c3)c3ccccc3n2)c1 [belumosudil]
15800 ng·h/mL

----------
# ASSAY_DETAILS: Phase I single-dose open-label pharmacokinetic study in participants with normal hepatic function and varying degrees of hepatic impairment
# Type: in vivo, human
# STATED_CONDITIONS: human, plasma, po, 200 mg; single oral 200 mg belumosudil, fed; moderate hepatic impairment; geometric mean (CV %)
PROPERTY_NAME: AUC(0-t) (ng·h/mL)
Numbers only, in ng·h/mL.

Please give the documented AUC(0-t) of CC(C)NC(=O)COc1cccc(-c2nc(Nc3ccc4[nH]ncc4c3)c3ccccc3n2)c1 [belumosudil]
23100

----------
# ASSAY_DETAILS: Phase I single-dose open-label pharmacokinetic study in participants with normal hepatic function and varying degrees of hepatic impairment
# Assay type: in vivo, human
# STATED_CONDITIONS: human, plasma, po, 200 mg; single oral 200 mg belumosudil, fed; normal hepatic function; median
# Text: The primary objective was to assess the pharmacokinetic (PK) of belumosudil following a single oral dose of belumosudil in participants with mild, moderate, or severe hepatic impairment compared to healthy participants with normal hepatic function. […]
PROPERTY_NAME: Tmax (h)
Give bare numbers, in h.

Using known records, supply Tmax for CC(C)NC(=O)COc1cccc(-c2nc(Nc3ccc4[nH]ncc4c3)c3ccccc3n2)c1
3.5

----------
# ASSAY_DETAILS: Phase I single-dose open-label pharmacokinetic study in participants with normal hepatic function and varying degrees of hepatic impairment
# Type: in vivo, human
# STATED_CONDITIONS: human, plasma, po, 200 mg; single oral 200 mg belumosudil, fed; normal hepatic function; geometric mean (CV %)
PROPERTY_NAME: CL/F (mL/min)
Answers are plain numbers, in mL/min.

// Input: CC(C)NC(=O)COc1cccc(-c2nc(Nc3ccc4[nH]ncc4c3)c3ccccc3n2)c1 . Output its CL/F only.
260
